Target: Triosephosphate isomerase, glycosomal (Trypanosoma cruzi) (UniProt P52270)
Sequence (P52270 whole entry): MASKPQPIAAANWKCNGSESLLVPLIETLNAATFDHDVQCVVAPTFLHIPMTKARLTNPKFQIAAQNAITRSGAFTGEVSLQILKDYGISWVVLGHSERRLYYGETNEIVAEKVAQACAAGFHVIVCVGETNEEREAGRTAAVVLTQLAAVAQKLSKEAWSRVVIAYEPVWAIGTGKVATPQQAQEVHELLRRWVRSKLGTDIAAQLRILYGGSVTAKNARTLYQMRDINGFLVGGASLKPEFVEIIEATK
Assay: Inhibition of recombinant Trypanosoma cruzi triosephosphate isomerase assessed as reduction of DHAP at 100 uM after 2 hrs by measuring NADH consumption by alpha-glycerolphosphate dehydrogenase coupled assay
readout: inhibition (%)

(1) COC(=O)c1cc2nc(SCC(=O)Nc3ccc(Cl)cc3)[nH]c2cc1Cl
(2) COC(=O)c1cc2nc(SCC(=O)Nc3ccc(Cl)cn3)[nH]c2cc1Cl
I need your help: which of the pair 1 , 2 has higher inhibition? Reply with the label of the item you choose. 1

(I) COC(=O)c1cc2nc(SCC(=O)Nc3cccc(C(N)=O)n3)[nH]c2cc1Cl
(II) COC(=O)c1cc2nc(SCC(=O)Nc3cccc(Cl)n3)[nH]c2cc1Cl
(III) COC(=O)c1cc2nc(SCC(=O)Nc3ccc(OC)cn3)[nH]c2cc1Cl
Sort the compounds on inhibition; start with the lowest figure. # format: label list in the order the request specifies I, III, II
